These entries and their values trace back to ChEMBL document CHEMBL1148789.

Some compounds, each annotated with its measured inhibition.
Biological target: UniProtKB P12931
Sequence (P12931 2-536 limits assumed): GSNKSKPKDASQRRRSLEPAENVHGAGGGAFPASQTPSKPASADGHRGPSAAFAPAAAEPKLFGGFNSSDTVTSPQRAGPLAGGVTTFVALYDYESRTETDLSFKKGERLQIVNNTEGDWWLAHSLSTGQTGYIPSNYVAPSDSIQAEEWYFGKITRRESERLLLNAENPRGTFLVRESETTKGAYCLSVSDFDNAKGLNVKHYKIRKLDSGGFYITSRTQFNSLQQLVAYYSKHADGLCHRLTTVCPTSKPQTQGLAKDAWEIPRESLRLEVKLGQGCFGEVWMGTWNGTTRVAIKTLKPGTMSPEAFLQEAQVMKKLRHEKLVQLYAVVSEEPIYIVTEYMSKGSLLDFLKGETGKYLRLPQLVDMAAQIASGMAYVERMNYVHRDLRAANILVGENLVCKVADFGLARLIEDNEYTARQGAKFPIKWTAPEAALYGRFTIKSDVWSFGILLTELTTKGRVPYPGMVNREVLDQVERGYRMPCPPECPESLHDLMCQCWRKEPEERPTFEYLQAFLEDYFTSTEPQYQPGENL
Assay: Inhibition of Src at 10 uM

compound: Cc1ccc2[nH]c3c4c(=O)ccc(=O)c4c4c(=O)[nH]c(=O)c4c3c2c1
unit: %
inhibition: 52.5
//
compound: O=C1NC(=O)c2c1c1c(O)cccc1c1[nH]c3ccccc3c21
unit: %
inhibition: 35
//
compound: O=C1NC(=O)c2c1c1c(O)ccc(O)c1c1[nH]c3ccc(O)cc3c21
unit: %
inhibition: 83.5
//
compound: O=c1ccc(=O)c2c1c1[nH]c3ccc(O)cc3c1c1c(=O)[nH]c(=O)c21
unit: %
inhibition: 63
//
compound: O=C1NC(=O)c2c1c1c(c3[nH]c4ccccc4c23)C(=O)CCC1
unit: %
inhibition: 8.5
//
compound: O=C1NC(=O)c2c1c1c(O)ccc(O)c1c1[nH]c3ccccc3c21
unit: %
inhibition: 2.5
//
compound: O=C1NC(=O)c2c1c1[nH]cnc1c1[nH]c3ccccc3c21 [GRANULATIMIDE]
unit: %
inhibition: 58

====

System: HT-29
Experiment: Antiproliferative activity against human HT29 cells […] by microculture tetrazolium assay
Assay type: functional, cell-based
Some molecules, each annotated with its measured IC50.
parameter: IC50

chemical_smiles: Cc1ccc2[nH]c3c4c(O)ccc(O)c4c4c(c3c2c1)C(=O)NC4=O
result: 3.8 µM
//
chemical_smiles: O=C1NC(=O)c2c1c1c(O)ccc(OS(=O)(=O)O)c1c1[nH]c3ccccc3c21
result: 46 µM
//
chemical_smiles: Cc1ccc2[nH]c3c4c(=O)ccc(=O)c4c4c(=O)[nH]c(=O)c4c3c2c1
result: 20.6 µM
//
chemical_smiles: O=C1NC(=O)c2c1c1c(O)cccc1c1[nH]c3ccccc3c21
result: 46.4 µM
//
chemical_smiles: O=C1NC(=O)c2c1c1c(O)ccc(O)c1c1[nH]c3ccc(O)cc3c21
result: 26.4 µM
//
chemical_smiles: O=c1ccc(=O)c2c1c1[nH]c3ccc(O)cc3c1c1c(=O)[nH]c(=O)c21
result: 50.6 µM
//
chemical_smiles: Cc1ccc2[nH]c3c4c(OS(=O)(=O)O)ccc(O)c4c4c(c3c2c1)C(=O)NC4=O
result: 50 µM
//
chemical_smiles: O=C1NC(=O)c2c1c1c(c3[nH]c4ccccc4c23)C(=O)CCC1
result: 15.5 µM
//
chemical_smiles: O=C1CCc2c1c1c(c3c2[nH]c2ccccc23)C(=O)NC1=O
result: 16.1 µM
//
chemical_smiles: CC(C)(C)C(=O)Oc1ccc(O)c2c3c(c4c5ccccc5[nH]c4c12)C(=O)NC3=O
result: 7.28 µM

====

Target: Serine/threonine-protein kinase Chk1 (Homo sapiens, UniProt O14757)
Sequence (O14757 whole entry): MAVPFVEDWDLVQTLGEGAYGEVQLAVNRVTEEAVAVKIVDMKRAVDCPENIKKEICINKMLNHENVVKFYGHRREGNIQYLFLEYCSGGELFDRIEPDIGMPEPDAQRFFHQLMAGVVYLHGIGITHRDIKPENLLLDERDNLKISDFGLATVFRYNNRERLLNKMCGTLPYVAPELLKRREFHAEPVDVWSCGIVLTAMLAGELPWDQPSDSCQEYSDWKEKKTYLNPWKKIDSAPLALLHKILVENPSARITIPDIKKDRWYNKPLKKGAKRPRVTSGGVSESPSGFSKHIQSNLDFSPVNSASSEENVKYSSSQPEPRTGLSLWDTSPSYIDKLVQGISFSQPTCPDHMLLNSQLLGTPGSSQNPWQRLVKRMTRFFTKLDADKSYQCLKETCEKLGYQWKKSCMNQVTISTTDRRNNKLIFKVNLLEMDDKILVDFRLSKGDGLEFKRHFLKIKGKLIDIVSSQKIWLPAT
pIC50: −log10 of the molar value.
parameter: pIC50

compound: O=C1NC(=O)c2c1c1c(O)cccc1c1[nH]c3ccccc3c21
parameter: pIC50
numeric_readout: 6.04
--
compound: O=C1NC(=O)c2c1c1c(O)ccc(O)c1c1[nH]c3ccccc3c21
parameter: pIC50
numeric_readout: 6.51
--
compound: O=C1NC(=O)c2c1c1c(O)ccc(O)c1c1[nH]c3ccc(O)cc3c21
parameter: pIC50
numeric_readout: 7.64
--
compound: O=c1[nH]c(=O)c2c1c1[nH]c3ccccc3c1c1c(=O)[nH]c(=O)c21 [BIS-IMIDE A]
parameter: pIC50
numeric_readout: 7.70
--
compound: Cc1ccc2[nH]c3c4c(=O)ccc(=O)c4c4c(=O)[nH]c(=O)c4c3c2c1
parameter: pIC50
numeric_readout: 6.97
--
compound: O=c1ccc(=O)c2c1c1[nH]c3ccc(O)cc3c1c1c(=O)[nH]c(=O)c21
parameter: pIC50
numeric_readout: 7.57
--
compound: CC(C)(C)C(=O)Oc1ccc(O)c2c3c(c4c5ccccc5[nH]c4c12)C(=O)NC3=O
parameter: pIC50
numeric_readout: 5.43
--
compound: O=c1ccc(=O)c2c1c1[nH]c3ccccc3c1c1c(=O)[nH]c(=O)c21
parameter: pIC50
numeric_readout: 6.57
--
compound: O=C1NC(=O)c2c1c1[nH]cnc1c1[nH]c3ccccc3c21 [GRANULATIMIDE]
parameter: pIC50
numeric_readout: 7.09
